- STUDY_TARGET: T1, human CD27 (human, UniProt P26842 21-260)
- T1 construct: also called hCD27; HsCD27
- PROCEDURE_DETAILS: cell ELISA on human CD27 CHOK1 cells, hIgG4
OBSERVABLE: EC50 (nM)
Report the figure in nM without appending any unit label.

# BINDER, READOUT_UNITS, RECORDED_VALUE
data = [
    ("hCD27.131A VH6VL6 huIgG4 (antibody, V domains shown) VH: EIQLVQSGAEVKKPGASVKVSCKASGYTFTNYGMNWVKQAPGQGLKWMGWINTNTGEPTYAEEFKGRFTFTLDTSISTAYMELSSLRSEDTAVYYCAREGDAMDYWGQGTTVTVSS VL: EIVLTQSPATLSLSPGERATLSCSASSSVSYMHWYQQKPGQAPKRWIYDTSKLASGVPARFSGSGSGTDYSLTISSLEPEDFAVYYCQQWNSYPFTFGQGTKLEIK", "nM", 0.101),
]

--- query ---
Item hCD27.131A VH9VL9 huIgG4 (antibody, V domains shown) VH: EIQLVQSGAEVKKPGASVKVSCKASGYTFTNYGMNWVRQAPGQGLKWMGWINTNTGEPTYAEEFKGRFTFTLDTSASTAYMELSSLRSEDTAVYYCAREGDAMDYWGQGTTVTVSS VL: DIQLTQSPSTLSASVGDRVTITCSASSSVSYMHWYQQKPGKAPKRWIYDTSKLASGVPARFSGSGSGTDYTLTISSLQPEDFATYYCQQWNSYPFTFGQGTKLEIK has what recorded EC50?
0.13
